Catalogue of pEC50 values
- Test summary: Inhibition of HCV genotype 4a NS5B polymerase infected in human HuH7 replicon cells by luciferase reporter gene assay
Kindly note that pEC50 refers to -log10 of the concentration in mol/L and answer with the value alone.

# count of solved cases: 3
>>> observed_measurement("CNC(=O)c1c(-c2ccc(F)cc2)oc2cc3c(cc12)C(C)OC(CS(C)(=O)=O)CN3S(C)(=O)=O (centres undefined)")
7.77
>>> observed_measurement("CNC(=O)c1c(-c2ccc(F)cc2)oc2cc3c(cc12)[C@H](C)O[C@H](CS(C)(=O)=O)CN3S(C)(=O)=O")
8.15
>>> observed_measurement("CNC(=O)c1c(-c2ccc(F)cc2)oc2cc3c(cc12)C(C)OCC(CO)N3S(C)(=O)=O (centres undefined)")
6.93

--- query ---
For reference, reported pEC50 for CNC(=O)c1c(-c2ccc(F)cc2)oc2cc(N(CCO)S(C)(=O)=O)c(C3CC3)cc12 [HCV 796] stands at 7.68

----------
- Test summary: Inhibition of HCV genotype 1a NS5A polymerase infected in human HuH7 replicon cells by luciferase reporter gene assay
Each record here notes measured pEC50.
# log scale: pEC50 equals minus log10 of the concentration in mol/L

Solved entries:
>>> observed_measurement("CNC(=O)c1c(-c2ccc(F)cc2)oc2cc3c(cc12)C(C)OC(CS(C)(=O)=O)CN3S(C)(=O)=O (centres undefined)")
8.05
>>> observed_measurement("CNC(=O)c1c(-c2ccc(F)cc2)oc2cc3c(cc12)[C@H](C)O[C@@H](CO)CN3S(C)(=O)=O")
7.19
>>> observed_measurement("CNC(=O)c1c(-c2ccc(F)cc2)oc2cc3c(cc12)C(C)OCC(CO)N3S(C)(=O)=O (centres undefined)")
7.40

compound CNC(=O)c1c(-c2ccc(F)cc2)oc2cc3c(cc12)C(C)n1nnnc1CN3S(C)(=O)=O (centres undefined) , pEC50 observed: 7.48

----------
- Test summary: Inhibition of HCV genotype 1b NS5B polymerase infected in human HuH7 replicon cells by luciferase reporter gene assay
Listed here: items and their measured EC50.
Give the value, in units of nM, as a plain number.

Record excerpt, results attached:
>>> observed_measurement("CNC(=O)c1c(-c2ccc(F)cc2)oc2cc3c(cc12)CCCCCN3S(C)(=O)=O")
5
>>> observed_measurement("CN(O)C(=O)c1c(-c2ccc(F)cc2)oc2cc3c(cc12)CCCCN3S(C)(=O)=O")
298

Briefly, EC50 measured for `CONC(=O)c1c(-c2ccc(F)cc2)oc2cc3c(cc12)CCCCN3S(C)(=O)=O` : 31

For reference, reported EC50 for CNC(=O)c1c(-c2ccc(F)cc2)oc2cc3c(cc12)C(C)n1nnnc1CN3S(C)(=O)=O (stereo not given) stands at 8

The reported EC50 of the compound CNC(=O)c1c(-c2ccc(F)cc2F)oc2cc3c(cc12)C(C)CCCN3S(C)(=O)=O (stereo not given) was 8

----------
- Test summary: Inhibition of HCV genotype 1b NS5B polymerase infected in human HuH7 replicon cells by luciferase reporter gene assay
Collected pEC50 values appear next to each entry.
To interpret pEC50, take it as minus log10 of a concentration measured in moles per litre.

>>> observed_measurement("CNC(=O)c1c(-c2ccc(F)cc2)oc2cc3c(cc12)[C@H](C)OC1(CC1)CN3S(C)(=O)=O")
7.89
>>> observed_measurement("CNC(=O)c1c(-c2ccc(F)cc2)oc2cc3c(cc12)[C@@H](C)n1nncc1CN3S(C)(=O)=O")
7.42
>>> observed_measurement("CNC(=O)c1c(-c2ccc(Oc3ccc(F)cc3)cc2)oc2cc3c(cc12)C(C)CCCN3S(C)(=O)=O (stereo unspecified)")
7.85

Entry under test: `CNC(=O)c1c(-c2ccc(F)cc2)oc2cc3c(cc12)[C@H](C)NC(=O)CN3S(C)(=O)=O` . Its pEC50 was 8.30

Query `CNC(=O)c1c(-c2ccc(F)cc2)oc2cc3c(cc12)[C@H](C)O[C@H](CO)CN3S(C)(=O)=O` yields pEC50 of 8.52
